Hey, just so you know, these numbers are from patent US20260297060A1.

protocol: Pharmacokinetics after 21 days dosing in the efficacy study (plasma, tumor and brain concentrations; plasma AUC at steady state), Example 14
Format: in vivo, female BALB/c nude mice
protocol.conditions: mouse, tumor, po; 6 mg/kg p.o. QD x 21 days; 24 h; mean ± SEM; read-out: Concentration in Tumor
reported.metric: concentration at 24 h

Consider the compound CCN(C)S(=O)(=O)Nc1ccc(F)c(Oc2ccc3ncn([C@H]4COC5(CCN(C6CC7(C6)CN(c6cc8c(cc6F)c(N6CCC(=O)NC6=O)nn8C)C7)CC5)C4)c(=O)c3c2)c1C#N and give its measured concentration at 24 h.
338 ng/g

* * *

Test system: A375-NRAS^Q61K cells
protocol: CTGlo Cell Viability Assay, A375-NRAS^Q61K (A375.11) cells, 96 hours
Assay type: cell-based, human
protocol.conditions: Homo sapiens, 96 h, A375.11 (A375-NRAS^Q61K) cells
reported.metric: GI50

INSERT INTO results (compound, system, reported_metric, assay_value) VALUES
  ('CCN(C)S(=O)(=O)Nc1ccc(F)c(Oc2ccc3ncc([C@@H]4COC5(CCN(C6CC7(C6)CN(c6cc8c(cc6F)c(N6CCC(=O)NC6=O)nn8C)C7)CC5)C4)nc3c2)c1C#N', 'A375-NRAS^Q61K cells', 'GI50', '1000 to 10000 nM'),
  ('CCN(C)S(=O)(=O)Nc1ccc(F)c(Oc2ccc3ncn(C4CC5(CCN(C6CCC(c7ccc(NC8CCC(=O)NC8=O)cc7F)CC6)CC5)C4)c(=O)c3c2)c1C#N (single isomer, unassigned)', 'A375-NRAS^Q61K cells', 'GI50', '< 1000 nM'),
  ('CCN(C)S(=O)(=O)Nc1ccc(F)c(Oc2ccc3ncc([C@@H]4COC5(CCN(C6CCC(c7cc8c(cc7F)c(N7CCC(=O)NC7=O)nn8C)CC6)CC5)C4)nc3c2)c1C#N (single isomer, unassigned)', 'A375-NRAS^Q61K cells', 'GI50', '< 1000 nM');

Consider the compound CCN(C)S(=O)(=O)Nc1ccc(F)c(Oc2ccc3ncn(C4CC5(CCC(N6CC[C@@H](c7cc8c(cc7F)c(N7CCC(=O)NC7=O)nn8C)C(F)(F)C6)CC5)C4)c(=O)c3c2)c1C#N (stereo partly drawn) and give its measured GI50.
< 1000 nM

Consider the compound CCN(C)S(=O)(=O)Nc1ccc(F)c(Oc2ccc3ncn([C@H]4COC5(CCC(N6CCN(c7ccc(NC8CCC(=O)NC8=O)cc7F)CC6)CC5)C4)c(=O)c3c2)c1C#N (stereo partly drawn) and give its measured GI50.
1000 to 10000 nM

Consider the compound CN(CCO)S(=O)(=O)Nc1ccc(F)c(Oc2ccc3ncc([C@H]4COC5(CCN(C6CCC(c7cc8c(cc7F)c(N7CCC(=O)NC7=O)nn8C)CC6)CC5)C4)nc3c2)c1C#N (single isomer, unassigned) and give its measured GI50.
< 1000 nM

Consider the compound CO[C@H]1CCN(S(=O)(=O)Nc2ccc(F)c(Oc3ccc4ncn(C5CC6(CCN(C7CC8(C7)CN(c7cc9c(cc7F)c(N7CCC(=O)NC7=O)nn9C)C8)CC6)C5)c(=O)c4c3)c2C#N)C1 (stereo partly drawn) and give its measured GI50.
> 10000 nM

Consider the compound CO[C@@H]1CCN(S(=O)(=O)Nc2ccc(F)c(Oc3ccc4ncn([C@H]5COC6(CCN(C7CCC(c8cc9c(cc8F)c(N8CCC(=O)NC8=O)nn9C)CC7)CC6)C5)c(=O)c4c3)c2C#N)C1 (single isomer, unassigned) and give its measured GI50.
< 1000 nM

Consider the compound CCN(C)S(=O)(=O)Nc1ccc(F)c(Oc2ccc3ncnc(OC4CC5(CCN(C6CCC(c7cc8c(cc7F)c(N7CCC(=O)NC7=O)nn8C)CC6)CC5)C4)c3c2)c1C#N (single isomer, unassigned) and give its measured GI50.
1000 to 10000 nM

Consider the compound CCN(C)S(=O)(=O)Nc1ccc(F)c(Oc2ccc3ncc(C4CC5(C4)CN(C4CC6(C4)CN(c4cc7c(cc4F)c(N4CCC(=O)NC4=O)nn7C)C6)C5)nc3c2)c1C#N (stereo not drawn) and give its measured GI50.
> 10000 nM

Consider the compound CCN(C)S(=O)(=O)Nc1ccc(F)c(C(=O)c2ccc3ncn(C4CC5(C4)CN(C4CC6(C4)CN(c4cc7c(cc4F)c(N4CCC(=O)NC4=O)nn7C)C6)C5)c(=O)c3c2)c1F (stereo not drawn) and give its measured GI50.
> 10000 nM

Consider the compound CCN(C)S(=O)(=O)Nc1ccc(F)c(Oc2ccc3ncn(CCC4CCN(C5CCC(c6ccc(NC7CCC(=O)NC7=O)cc6F)CC5)CC4)c(=O)c3c2)c1C#N (single isomer, unassigned) and give its measured GI50.
> 10000 nM

Consider the compound CCN(C)S(=O)(=O)Nc1ccc(F)c(Oc2ccc3ncn(C4CC5(CC(N6CC[C@@H](c7cc8c(cc7F)c(N7CCC(=O)NC7=O)nn8C)C(F)(F)C6)C5)C4)c(=O)c3c2)c1C#N (stereo partly drawn) and give its measured GI50.
1000 to 10000 nM

Consider the compound CCN(C)S(=O)(=O)Nc1ccc(F)c(Oc2ccc3ncc(CC4CCN(C5CCC(c6ccc(NC7CCC(=O)NC7=O)cc6F)CC5)CC4)nc3c2)c1C#N (single isomer, unassigned) and give its measured GI50.
> 10000 nM

Consider the compound Cn1nc(N2CCC(=O)NC2=O)c2cc(F)c(N3CC4(CC(N5CCC6(CC5)CC(c5cnc7ccc(Oc8c(F)ccc(NS(=O)(=O)N9CC[C@@H](F)C9)c8C#N)cc7n5)C6)C4)C3)cc21 and give its measured GI50.
< 1000 nM

Consider the compound Cn1nc(N2CCC(=O)NC2=O)c2cc(F)c(N3CC4(CC(N5CCC6(CC5)CC(n5cnc7ccc(Oc8c(F)ccc(NS(=O)(=O)C9CCOCC9)c8C#N)cc7c5=O)C6)C4)C3)cc21 and give its measured GI50.
> 10000 nM

Consider the compound CN(CCO)S(=O)(=O)Nc1ccc(F)c(Oc2ccc3ncc([C@@H]4COC5(CCN(C6CCC(c7cc8c(cc7F)c(N7CCC(=O)NC7=O)nn8C)CC6)CC5)C4)nc3c2)c1C#N (single isomer, unassigned) and give its measured GI50.
< 1000 nM

Consider the compound CCN(C)S(=O)(=O)Nc1ccc(F)c(Nc2ccc3ncn([C@@H]4COC5(CCN(C6CCC(c7ccc(NC8CCC(=O)NC8=O)cc7F)CC6)CC5)C4)c(=O)c3c2F)c1C#N (single isomer, unassigned) and give its measured GI50.
< 1000 nM
